These entries and their values trace back to patent US9388163B2.

NADH oxidase (complex I, III, IV) activity (%) reference
System: bovine heart mitochondrial complex (I, III, IV)
Assay notes: NADH oxidase inhibition assay (beef heart submitochondrial particles)
Assay type: biochemical
Assay context: 10 μM compound
Value kind: NADH oxidase (complex I, III, IV) activity (%)

{"Compound": "C=Cc1c(C)n(O)c(C)c(CCCCCCCCCCCCCCCC)c1=O [CPD-2]", "Unit spec": "%", "Reading": 11.9}
{"Compound": "CCCCCCCCCCCCCCCCc1c(C)n(O)c(C)c(N)c1=O [CPD-4]", "Unit spec": "%", "Reading": 10.7}
{"Compound": "CCCCCCCc1c(C)n(O)c(C)c(OC)c1=O [CPD-5]", "Unit spec": "%", "Reading": 33.5}
{"Compound": "CCCCCCCc1c(C)n(O)c(C)c(N)c1=O [CPD-3]", "Unit spec": "%", "Reading": 70.4}
